biological target: T1, Human C5 (human, UniProt P01031 19-1676); assay: SPR, mAb captured by anti-hFc, 37C
T1 construct: The natural protein has a beta and an alpha chain; also called complement factor 5; complement component 5
OBSERVABLE: koff (s⁻¹)
Value expressed in s⁻¹; do not type the unit.

Recorded results for 2 binders are shown here.
H4H11683N (antibody, human IgG4, V domains shown, also called H2M11683N) VH: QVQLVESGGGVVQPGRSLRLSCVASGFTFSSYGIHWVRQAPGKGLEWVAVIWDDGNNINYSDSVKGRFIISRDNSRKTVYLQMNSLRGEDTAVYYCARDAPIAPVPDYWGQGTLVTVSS VL: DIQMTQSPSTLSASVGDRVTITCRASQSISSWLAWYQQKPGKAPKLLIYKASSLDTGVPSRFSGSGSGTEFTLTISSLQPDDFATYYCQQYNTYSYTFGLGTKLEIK
0.000241
H4H12168P (antibody, human IgG4, V domains shown) VH: QVQLVESGGGVVQPGGSLRLSCAASGFTFGGHAMHWVRQAPGKGLEWLAVISSDGSNKQYADSVKGRFTISRDNPKNTLYLQMNSLRVGDTAIYYCAKEVAPRYYYYGLDVWGQGTTVTVSS VL: DIQMTQSPSSLSASVGDRVTITCRASQDISNFLAWYQQKPGKVPKLLIYTASTLQSGVPSRFSGSGSGTDFTLTVSSLQPEDVATYYCQKYAGALTFGPGTKVDIK
0.000464

// next item, koff requested
-- ask # query: koff of entry H4H12166P4 (antibody, human IgG4, V domains shown, human IgG4 Fc with S108P hinge mutation) VH: QVQLQESGPGLVKPSETLSLTCTVSGDSVSSSYWTWIRQPPGKGLEWIGYIYYSGSSNYNPSLKSRATISVDTSKNQFSLKLSSVTAADTAVYYCAREGNVDTTMIFDYWGQGTLVTVSS VL: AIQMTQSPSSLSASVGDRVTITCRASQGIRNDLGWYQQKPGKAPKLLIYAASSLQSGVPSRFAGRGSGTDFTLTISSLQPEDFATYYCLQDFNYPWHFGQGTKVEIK
-- reply 0.000469
